Assay method text: Terminal half life in dog at 10 mg/kg, po
Assay type: ADME, organism-based, Canis lupus familiaris
Set-up: dose 10 mg/kg, route oral
Condition description: in vivo, read-out: beta t1/2 (converted)
Measurement label: half-life (h)

[
  {
    "Molecule": "Cc1nnc(C(=O)NC(C)(C)c2nc(C(=O)NCc3ccc(F)cc3)c([O-])c(=O)n2C)o1.[K+] [RALTEGRAVIR POTASSIUM]",
    "Measurement label": "half-life",
    "Unit text": "h",
    "Observed": 13
  },
  {
    "Molecule": "CN(C)C(=O)C(=O)NC(C)(C)c1nc(C(=O)NCc2ccc(F)cc2)c(O)c(=O)n1C",
    "Measurement label": "half-life",
    "Unit text": "h",
    "Observed": 4.9
  },
  {
    "Molecule": "CN(C)C(=O)C(=O)NC(C)(C)c1nc(C(=O)NCc2ccc(F)cc2)c([O-])c(=O)n1C.[Na+]",
    "Measurement label": "half-life",
    "Unit text": "h",
    "Observed": 11.9
  }
]

====

Assay method text: Oral bioavailability in po dosed dog
Assay type: ADME, organism-based, Canis lupus familiaris
Condition description: in vivo
Measurement label: bioavailability (%)

[
  {
    "Compound structure": "Cc1nnc(C(=O)NC(C)(C)c2nc(C(=O)NCc3ccc(F)cc3)c(O)c(=O)n2C)o1",
    "Measurement label": "bioavailability",
    "Unit text": "%",
    "Observed": 45
  },
  {
    "Compound structure": "Cc1nnc(C(=O)NC(C)(C)c2nc(C(=O)NCc3ccc(F)cc3)c([O-])c(=O)n2C)o1.[K+]",
    "Measurement label": "bioavailability",
    "Unit text": "%",
    "Observed": 69
  },
  {
    "Compound structure": "CN(C)C(=O)C(=O)NC(C)(C)c1nc(C(=O)NCc2ccc(F)cc2)c([O-])c(=O)n1C.[Na+]",
    "Measurement label": "bioavailability",
    "Unit text": "%",
    "Observed": 93
  }
]

====

# fraction unbound listing for each entry below
Assay method text: Protein binding in rhesus monkey plasma
Format: ADME, cell-free, Macaca mulatta
Condition description: read-out: PPB (converted)
Measurement label: fraction unbound

[
  {
    "Compound structure": "CN(C)C(=O)C(=O)NC(C)(C)c1nc(C(=O)NCc2ccc(F)cc2)c([O-])c(=O)n1C.[Na+]",
    "Measurement label": "fraction unbound",
    "Observed": 0.82
  },
  {
    "Compound structure": "Cc1nnc(C(=O)NC(C)(C)c2nc(C(=O)NCc3ccc(F)cc3)c([O-])c(=O)n2C)o1.[Na+]",
    "Measurement label": "fraction unbound",
    "Observed": 0.85
  }
]

====

Assay method text: Oral bioavailability in po dosed rhesus monkey
Format: ADME, organism-based, Macaca mulatta
Condition description: in vivo
# bioavailability listing for each entry below
Measurement label: bioavailability (%)

[
  {
    "Compound structure": "CN(C)C(=O)C(=O)NC(C)(C)c1nc(C(=O)NCc2ccc(F)cc2)c(O)c(=O)n1C",
    "Measurement label": "bioavailability",
    "Observed": 24
  },
  {
    "Compound structure": "Cc1nnc(C(=O)NC(C)(C)c2nc(C(=O)NCc3ccc(F)cc3)c(O)c(=O)n2C)o1",
    "Measurement label": "bioavailability",
    "Observed": 8
  }
]
